Value source: paper PMC6355468

# Protocol Description: Rat pharmacokinetic study of DZ2002
# Assay type: in vivo, Sprague-Dawley rats
# Reported Conditions: female, Sprague-Dawley, rat, blood, iv, 5 mg/kg
Entries and their AUC(0-t) values follow.
# output: bare number, implied unit µM·h

>>> quantitative_readout("COC(=O)[C@@H](O)CCn1cnc2c(N)ncnc21 [DZ2002]")
0.66

Now examine the next entry.
Documented AUC(0-t) of Nc1ncnc2c1ncn2CCC(O)C(=O)O (centres unmarked) [DZA] : 4.71

---

# Protocol Description: Rat pharmacokinetic study of DZ2002
# Format: in vivo, Sprague-Dawley rats
# Reported Conditions: male, Sprague-Dawley, rat, blood, po, 10 mg/kg
Property Measured: AUC(0-inf) (µM·h)
Numeric only. Scale: µM·h

The compound COC(=O)[C@@H](O)CCn1cnc2c(N)ncnc21 showed AUC(0-inf) equal to 1.47

Measured AUC(0-inf) of Nc1ncnc2c1ncn2CCC(O)C(=O)O (centres unmarked) : 6.81
